Each recorded value in this set is attributed to patent US20120040977A1.

Give measured EC50 for each item. Keep answers brief.
- Tested on: HCV genotype 1b replicon
- Experimental Protocol: HCV replicon assay (HCV 1b_Huh-Luc/Neo-ET cell line, luciferase readout)
- Format: cell-based
- Experimental Context: Hepatitis C virus; bicistronic genotype 1b replicon in Huh 7 cells, 72 h incubation, luciferase enzyme activity; read-out: Inhibition of HCV genotype 1b
- Method: Biological activity of the compounds of the invention was determined using an HCV replicon assay. The HCV 1b_Huh-Luc/Neo-ET cell line persistently expressing a bicistronic genotype 1b replicon in Huh 7 cells was obtained from ReBLikon GMBH. This cell line was used to test compound inhibition using luciferase enzyme activity readout as a measurement of compound inhibition of replicon levels. […] The EC50 value was determined using GraphPad Prism and the following equation: […]

CC(C)[C@@H](NC(=O)C1CC1)C(=O)N1CCOC[C@H]1C(=O)Nc1ccc(-c2ccc(-c3cnc([C@@H]4CCCN4C(=O)[C@H](NC(=O)C4CC4)C(C)C)[nH]3)cc2)cc1 = 1 to 9.9 nM
O=C(NCc1ccc(-c2ccc(-c3cnc([C@@H]4CCCN4C(=O)[C@H](NC(=O)N4CCOCC4)c4ccccc4)[nH]3)cc2)cc1)[C@@H]1CCCN1C(=O)[C@H](NC(=O)N1CCOCC1)c1ccccc1 = 1 to 9.9 nM
C=CC[C@H](NC(=O)OC)C(=O)N1CCC[C@H]1C(=O)NCc1ccc(-c2ccc(-c3cnc([C@@H]4CCCN4C(=O)[C@H](CC=C)NC(=O)OC)[nH]3)cc2)cc1 = 1 to 9.9 nM
COC(=O)N[C@H](C(=O)N1CCC[C@H]1C(=O)NCc1ccc(-c2ccc3nc([C@@H]4CCCN4C(=O)[C@@H](NC(=O)OC)C(C)C)[nH]c3c2)cc1)C(C)C = 1 to 9.9 nM

Continue with the compound presented below.
Param request: EC50 | system HCV genotype 1b replicon | item COC(=O)N[C@H](C(=O)N1CCC[C@H]1C(=O)NCc1ccc(-c2ccc(-c3cnc([C@@H]4CCCN4C(=O)[C@@H](NC(=O)OC)C4CCOCC4)[nH]3)cc2)cc1)C1CCOCC1
10 to 999 nM

----------
Give measured EC50 for each item. Keep answers brief.
- Test system: HCV genotype 1b replicon
- Experimental Protocol: HCV replicon assay (HCV 1b_Huh-Luc/Neo-ET cell line, luciferase readout)
- Type: cell-based
- Experimental Context: Hepatitis C virus; bicistronic genotype 1b replicon in Huh 7 cells, 72 h incubation, luciferase enzyme activity; read-out: Inhibition of HCV genotype 1b

# per-item lookup of EC50; items listed below
1. CC(C)[C@@H](NC(=O)C1CC1)C(=O)N1CCC[C@H]1c1ncc(-c2ccc(Oc3ccc(-c4cnc([C@@H]5CCCN5C(=O)[C@H](NC(=O)C5CC5)C(C)C)[nH]4)cc3)cc2)[nH]1
2. CC(C)(C)OC(=O)N1CCOCC1C(=O)Nc1ccc(-c2ccc(-c3cnc([C@@H]4COCCN4C(=O)OC(C)(C)C)[nH]3)cc2)cc1 (some centres unmarked)
3. COC(=O)N[C@H](C(=O)N1CCC[C@H]1C(=O)NCc1ccc(-c2ccc(-c3cnc([C@@H]4CCCN4C(=O)[C@@H](NC(=O)OC)C(C)C)[nH]3)cn2)cc1)C(C)C
4. C[C@H](NC(=O)[C@@H]1CCCN1C(=O)[C@H](NC(=O)OC(C)(C)C)c1ccccc1)c1ccc(-c2ccc(-c3cnc([C@@H]4CCCN4C(=O)[C@H](NC(=O)OC(C)(C)C)c4ccccc4)[nH]3)cc2)cc1
5. COC(=O)N[C@H](C(=O)N1CCC[C@H]1CNC(=O)c1ccc(-c2ccc3nc([C@@H]4CCCN4C(=O)[C@@H](NC(=O)OC)C(C)C)[nH]c3c2)cn1)C(C)C

1 to 9.9 nM
> 1000 nM
10 to 999 nM
< 1 nM
10 to 999 nM
